experiment: DUSP6 inhibitors restoring Erk phosphorylation by chemical complementation, primary imaging in DUSP6-transfected HeLa (AID 609)
experimental-setup: HeLa MKP-3 transfected, phospho-Erk imaging KS statistic; measured here: cell density z-score; at 10 µM; cells stimulated with TPA for 15 min
Reported z-score values for a set of compounds
Could you respond with only the numeric value?

# compound, assay-metric, assay-result
measured = [
    ("CC1=NN(c2ccccc2)C(=O)C1", "z-score", 0.599),
]

IN: # query: z-score of entry COCCOC(=O)c1c(C)nc(SCC(=O)Nc2ccc(OC)cc2)c(C#N)c1-c1ccco1
OUT: -0.584

IN: # query: z-score of entry Cc1ccc2c(=O)c(CN(C)C3CCN(C)CC3)c(C)[nH]c2c1C
OUT: 0.488

IN: # query: z-score of entry COC(=O)C1=C(C)N=C2SC(C)C(=O)N2C1/C=C/c1ccccc1OC (centres undefined)
OUT: -1.74

IN: # query: z-score of entry CCOC(=O)c1ccc(N=Cc2nc(-c3ccccc3)oc2OC(C)=O)cc1
OUT: 0.0584

IN: # query: z-score of entry COc1ccc(Cn2c(=O)c3c(nc(NCCO)n3C)n(C)c2=O)cc1
OUT: -0.216

IN: # query: z-score of entry CCCCc1nc2n[nH]c(N)c2c2c1CCCC2
OUT: -0.979

IN: # query: z-score of entry CC(=O)OCC(=O)[C@@]1(O)[C@H](C)C[C@H]2[C@@H]3CCC4=CC(=O)C=C[C@]4(C)[C@@]3(F)[C@@H](O)C[C@@]21C
OUT: -0.698

IN: # query: z-score of entry COC(=O)c1ccn(C(=O)c2ccc(Cl)cc2)n1
OUT: 1.7
